Values were extracted from patent US20240376214A1.

Molecular target: T1, human c-Met (HGFR), full length, on the cell surface (human, UniProt P08581 25-1390)
T1 construct: Endogenous c-Met on human tumor cell lines MKN45, NCI-H596, PC-3 and HepG2; also called hepatocyte growth factor receptor; mesenchymal-epithelial transition factor
T1 sequence (P08581 25-1390 limits assumed): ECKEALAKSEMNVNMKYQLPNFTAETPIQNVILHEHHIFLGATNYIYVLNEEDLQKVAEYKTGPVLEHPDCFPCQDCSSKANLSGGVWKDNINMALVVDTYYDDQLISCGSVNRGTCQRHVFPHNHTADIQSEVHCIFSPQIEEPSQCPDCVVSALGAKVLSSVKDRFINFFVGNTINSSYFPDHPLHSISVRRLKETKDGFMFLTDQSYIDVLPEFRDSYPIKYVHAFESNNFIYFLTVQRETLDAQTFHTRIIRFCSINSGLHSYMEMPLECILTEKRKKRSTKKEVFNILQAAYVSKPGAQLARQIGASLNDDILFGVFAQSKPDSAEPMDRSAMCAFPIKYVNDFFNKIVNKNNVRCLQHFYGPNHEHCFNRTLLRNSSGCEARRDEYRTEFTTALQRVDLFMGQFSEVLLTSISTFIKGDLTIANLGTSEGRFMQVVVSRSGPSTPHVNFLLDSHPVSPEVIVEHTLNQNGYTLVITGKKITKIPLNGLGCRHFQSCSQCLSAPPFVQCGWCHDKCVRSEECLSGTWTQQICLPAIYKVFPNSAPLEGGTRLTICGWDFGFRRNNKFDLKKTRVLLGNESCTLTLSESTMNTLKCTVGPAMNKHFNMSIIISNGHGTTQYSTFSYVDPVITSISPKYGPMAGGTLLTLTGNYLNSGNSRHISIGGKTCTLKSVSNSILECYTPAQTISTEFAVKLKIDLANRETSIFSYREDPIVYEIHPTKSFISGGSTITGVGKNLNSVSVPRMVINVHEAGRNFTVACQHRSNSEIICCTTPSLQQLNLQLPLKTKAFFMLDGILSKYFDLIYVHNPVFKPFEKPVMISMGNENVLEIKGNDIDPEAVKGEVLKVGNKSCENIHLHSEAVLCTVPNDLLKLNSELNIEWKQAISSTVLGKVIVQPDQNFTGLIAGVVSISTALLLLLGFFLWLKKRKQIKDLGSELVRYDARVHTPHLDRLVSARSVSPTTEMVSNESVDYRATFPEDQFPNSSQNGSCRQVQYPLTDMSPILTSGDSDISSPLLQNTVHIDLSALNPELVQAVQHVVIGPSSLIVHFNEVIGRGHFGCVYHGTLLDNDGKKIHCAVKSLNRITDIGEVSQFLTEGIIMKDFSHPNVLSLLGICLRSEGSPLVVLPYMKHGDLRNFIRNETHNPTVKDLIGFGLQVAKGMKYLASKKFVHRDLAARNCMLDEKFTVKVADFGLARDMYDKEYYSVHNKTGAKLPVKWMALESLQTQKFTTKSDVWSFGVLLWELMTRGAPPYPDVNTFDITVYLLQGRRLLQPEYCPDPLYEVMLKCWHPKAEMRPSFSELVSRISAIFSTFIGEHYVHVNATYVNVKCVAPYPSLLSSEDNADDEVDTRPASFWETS
Assay: flow cytometry, PC-3 cells, without HGF
Items are presented alongside their recorded EC50.
Could you give me the number in µg/mL? Just the number is fine.

Below: 2 binders and their reported EC50.
mAb2a (antibody, human IgG1, kappa, V domains shown, Humanized IgG1 kappa, HC-41C, from wt/41C-chi-mAb2; also called humanized HC-41C antibody mAb2a) VH: QVQLVQSGAELRKPGSSVKVSCRASGYVFPDYEMHWVRQACGQGLEWMGAFDPETGDTTYNQNFKGRVTIAADKSTSTAYMELRSLRSEDTAIYYCARDYKYLYYYAMDNWGQGTMVTVSS VL: EIVLTQSPSLLSASIGDRVTIPCTASSSITSSYLHWYQQKPGKAPKLLIYSTTNLASGVPSRFSGSGSGTEFTLTISSLQPEDFATYYCHQYRRSPLTFGGGTKLEIKR
0.04
mAb3b (antibody, human IgG1, kappa, V domains shown, Humanized IgG1 kappa, HC-41C, from wt/41C-chi-mAb3; also called humanized HC-41C antibody mAb3b) VH: QVQLVQSGAEVKKPGASVKVSCKASGYTFTDYYLNWVRQACGQGLEWMGLIFPGNDKTEYSEKFKGRVTLTTDTSISTAYMELSSLTSDDTALYYCSGGDYGGFVYWGQGTLVTVSS VL: DIQMTQSPSSLSASVGDRVTISCGASENIYGALNWYQQQPGKAPKVLIFGATNLADGVPSRFSGSGSGTDFTLTISSLQPEDFATYYCQNVLSSPLTFGQGTKLEIKR
0.03

State its EC50: mAb3e (antibody, human IgG1, kappa, V domains shown, Humanized IgG1 kappa, HC-41C, from wt/41C-chi-mAb3; also called humanized HC-41C antibody mAb3e) VH: QVQLQESGAEVKKPGASVKVSCKASGYTFTDYYLNWVRQACGQGLEWMGLIFPGNDKTEYSEKFKGRVTMTRDTSTSTVYMELSSLRSEDTAVYYCSGGDYGGFVYWGQGTLVTVSS VL: DIQMTQSPSSLSASVGDRVTITCGASENIYGALNWYQQKPGKAPKLLIYGATNLADGVPSRFSGSGSGTDFTLTISSLQPEDVATYYCQNVLSSPLTFGSGTKLEIKR 0.03
